Hello, the source for this data is patent EP0677039B1, in case you need it.

# testSystem: Rat liver microsomal squalene synthetase (Rattus norvegicus, UniProt Q02769)
# Construct: Rat liver microsome, the source of enzyme; from tissue; host or cells: rat liver microsomes
# Sequence (Q02769 1-416): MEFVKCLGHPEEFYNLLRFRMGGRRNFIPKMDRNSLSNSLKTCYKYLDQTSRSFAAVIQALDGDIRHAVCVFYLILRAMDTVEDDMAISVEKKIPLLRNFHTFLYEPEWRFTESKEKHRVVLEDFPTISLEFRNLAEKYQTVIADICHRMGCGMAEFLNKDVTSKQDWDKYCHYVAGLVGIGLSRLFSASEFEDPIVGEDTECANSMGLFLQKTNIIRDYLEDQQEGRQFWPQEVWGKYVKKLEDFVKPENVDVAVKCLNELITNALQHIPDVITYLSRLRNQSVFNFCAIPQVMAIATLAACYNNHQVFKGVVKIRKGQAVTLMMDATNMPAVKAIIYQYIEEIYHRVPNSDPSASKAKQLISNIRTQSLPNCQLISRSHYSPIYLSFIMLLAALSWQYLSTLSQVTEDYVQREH
# assayComment: In vitro inhibition of squalene synthetase
# Type: biochemical
# experimentalConditions: 10 µM test compound; rat liver microsomes, labelled farnesyl pyrophosphate, 10 minutes at 37 °C; compared to controls with no test compound
endpointName: inhibition at 10 µM (%)
// return numeric value only (unit: %, not printed)

>>> measvalue("O=C(O)C1C(C(=O)O)C(C(=O)N(Cc2ccccc2)Cc2ccccc2)C1C(=O)N(Cc1ccccc1)Cc1ccccc1 (stereo not shown)")
44
>>> measvalue("CCCN(Cc1ccc(Oc2ccccc2)s1)C(=O)C1C(C(=O)O)C(C(=O)O)C1C(=O)N(CCC)Cc1ccc(Oc2ccccc2)s1 (stereo not shown) [Example 83B]")
85
>>> measvalue("CN(Cc1cccc(Oc2ccccc2)c1)C(=O)[C@H]1[C@@H](C(=O)O)[C@H](C(=O)O)[C@@H]1C(=O)N(C)Cc1cccc(Oc2ccccc2)c1")
55
>>> measvalue("COc1ccc(CCN(Cc2ccc(Oc3ccccc3)cc2)C(=O)C2C(C(=O)O)C(C(=O)O)C2C(=O)N(CCc2ccc(OC)c(OC)c2)Cc2ccc(Oc3ccccc3)cc2)cc1OC (stereo not shown)")
78
>>> measvalue("O=C(O)[C@H]1[C@H](C(=O)O)[C@H](C(=O)OCc2ccc(Oc3ccccc3)cc2)[C@H]1C(=O)OCc1ccc(Oc2ccccc2)cc1 [Example 65B]")
58

Can you look up inhibition at 10 µM on Rat liver microsomal squalene synthetase (Rattus norvegicus, UniProt Q02769) for CCCN(C(=O)C1C(C(=O)O)C(C(=O)O)C1C(=O)N(CCC)c1ccc(Oc2ccccc2)cc1)c1ccc(Oc2ccccc2)cc1 (stereo not shown) [Example 39C] ?
59

Then "C[C@@H](c1ccccc1)N(Cc1ccc(Oc2ccccc2)cc1)C(=O)[C@H]1[C@@H](C(=O)O)[C@H](C(=O)O)[C@@H]1C(=O)N(Cc1ccc(Oc2ccccc2)cc1)[C@@H](C)c1ccccc1" ?
89

// query: CCCN(Cc1ccc(OC2CCCCC2)cc1)C(=O)[C@H]1[C@@H](C(=O)O)[C@H](C(=O)O)[C@@H]1C(=O)N(CCC)Cc1ccc(OC2CCCCC2)cc1 [Example 61B]
43

Note, next up: "CN(C(=O)[C@H]1[C@@H](C(=O)O)[C@H](C(=O)O)[C@@H]1C(=O)N(C)c1ccc(-c2ccccc2)cc1)c1ccc(-c2ccccc2)cc1"
20

# iterate: "O=C(O)[C@H]1[C@H](C(=O)O)[C@H](C(=O)N(CCCc2ccccc2)Cc2ccc(Oc3ccccc3)cc2)[C@H]1C(=O)N(CCCc1ccccc1)Cc1ccc(Oc2ccccc2)cc1"
64

Consider next the compound CCCN(Cc1ccc(Oc2ccccc2)c(C)c1)C(=O)C1C(C(=O)O)C(C(=O)O)C1C(=O)N(CCC)Cc1ccc(Oc2ccccc2)c(C)c1 (stereo not shown) [Example 89C] in the same way.
88

// repeat for CCCN(CCc1ccc(Oc2ccccc2)cc1)C(=O)[C@H]1[C@@H](C(=O)O)[C@H](C(=O)O)[C@@H]1C(=O)N(CCC)CCc1ccc(Oc2ccccc2)cc1 [Example 38H] and report
51

Another compound to look at: CN(Cc1ccc(Oc2ccccc2)cc1)C(=O)NC1C(NC(=O)N(C)Cc2ccc(Oc3ccccc3)cc2)C(C(=O)O)C1C(=O)O (stereo not shown)
54

Same lookup for "O=C(O)[C@H]1[C@H](C(=O)O)[C@H](C(=O)N(Cc2ccccc2)Cc2ccc(Oc3ccccc3)cc2)[C@H]1C(=O)N(Cc1ccccc1)Cc1ccc(Oc2ccccc2)cc1" , please.
99

Queued: "CCCN(Cc1ccc(Oc2ccccc2)cc1)C(=O)[C@H]1[C@@H](C(=O)O)[C@H](C(=O)O)[C@@H]1C(=O)N(Cc1ccccc1)Cc1ccc(Oc2ccccc2)cc1"
90

How about this compound: CCCN(Cc1ccc(Oc2ccccc2)cc1)C(=O)[C@@H]1[C@H](CC(=O)O)[C@@H](CC(=O)O)[C@H]1C(=O)N(CCC)Cc1ccc(Oc2ccccc2)cc1 (relative stereo) [Example 103B]
90

Another: CCCN(Cc1ccc(Oc2ccccc2)cc1)C(=O)C1C(C(=O)O)C(C(=O)NCC(=O)O)C1C(=O)N(CCC)Cc1ccc(Oc2ccccc2)cc1 (stereo not shown)
92

Same thing, different compound: "CCCN(Cc1ccc(Cc2ccccc2)cc1)C(=O)[C@H]1[C@@H](C(=O)O)[C@H](C(=O)O)[C@@H]1C(=O)N(CCC)Cc1ccc(Cc2ccccc2)cc1"
84

What would you report for COCCN(Cc1ccc(Oc2ccccc2)cc1)C(=O)C1C(C(=O)O)C(C(=O)O)C1C(=O)N(CCOC)Cc1ccc(Oc2ccccc2)cc1 (stereo not shown) [Example 40B] ?
82

Try "CN(Cc1ccc(OCc2ccccc2)cc1)C(=O)[C@H]1[C@@H](C(=O)O)[C@H](C(=O)O)[C@@H]1C(=O)N(C)Cc1ccc(OCc2ccccc2)cc1" next.
31

Please do the same for CCCN(Cc1ccc(Oc2ccco2)cc1)C(=O)C1C(C(=O)O)C(C(=O)O)C1C(=O)N(CCC)Cc1ccc(Oc2ccco2)cc1 (stereo not shown) [Example 84G] as well.
89

Record: CCCN(Cc1ccc(Oc2ccccc2)cc1)C(=O)[C@@H]1[C@H](C(=O)C=[N+]=[N-])[C@@H](C(=O)C=[N+]=[N-])[C@H]1C(=O)N(CCC)Cc1ccc(Oc2ccccc2)cc1 (relative stereo)
58
